System: ornithine decarboxylase (ODC)
Experiment: ODC assay: inhibition of TPA induction of ornithine decarboxylase (ODC) activity
Assay type: biochemical
Conditions: 60% inhibition in the ODC assay (TPA induction)
REPORTED METRIC: IC60 (nmols)
Please give a number only; it is taken to be in nmols.

For record CCOC(=O)c1ccc(/N=N/c2ccc3c(c2)C(OCOC)CCC3(C)C)cc1 (racemic) the listed IC60 is 1.9

For record CCOC(=O)c1ccc(/C=C/c2ccc3c(c2)C2(CCC3(C)C)SCCCS2)cc1 the listed IC60 is 43.7

For record CCO/N=C1\CCC(C)(C)c2ccc(/C(C)=C/C=C/C(C)=C/C(=O)OCC)cc21 [Compound C22b] the listed IC60 is 10

For record CCO/N=C1\CCC(C)(C)c2ccc(/C=C/c3ccc(C(=O)OCC)cc3)cc21 the listed IC60 is 10.3
